Overview of reported viability at 10 µM across a group of compounds:
tested on: HT-29; test: Cytotoxicity against human HT-29 cells assessed as survival index at 10 uM after 72 hrs by FMCA method; format: functional; conditions: HT-29, 72 h, read-out: Survival
metric: viability at 10 µM (%)

1. C[C@@H]1CC[C@@]2(OC1)O[C@H]1[C@@H](O)[C@H]3[C@@H]4CC[C@H]5C[C@@H](O[C@@H]6O[C@H](CO)[C@H](O[C@@H]7O[C@H](CO)C(O)[C@H](O[C@@H]8OC[C@@H](O)[C@H](O)[C@H]8O)[C@H]7O[C@@H]7O[C@H](CO)[C@H](O)[C@H](O[C@@H]8O[C@H](CO)[C@@H](O)[C@H](O)[C@H]8O)[C@H]7O)[C@H](O)[C@H]6O)[C@H](O)C[C@]5(C)[C@H]4CC[C@]3(C)[C@H]1[C@@H]2C (some centres undefined) :: 74
2. C[C@@H]1O[C@@H](O[C@@H]2C=C3CC[C@@H]4[C@H](CC[C@]5(C)[C@@H](c6ccc(=O)oc6)CC[C@]45O)[C@@]3(C)CC2)[C@H](O)[C@H](O)[C@H]1O :: 18
3. C[C@]12CC[C@H](O)C[C@H]1CC[C@@H]1[C@@H]2[C@H](O)C[C@]2(C)[C@@H](C3=CC(=O)OC3)CC[C@]12O :: 63
4. CO[C@H]1[C@H](O)[C@H](O[C@H]2CC[C@@]3(C=O)[C@H](CC[C@@H]4[C@@H]3CC[C@]3(C)[C@@H](C5=CC(=O)OC5)CC[C@]43O)C2)O[C@@H](C)[C@@H]1O [PERUVOSIDE] :: 24

The values you see were collected from ChEMBL document CHEMBL1153723.
